Origin of the recorded values: patent US20200283478A1

Item-by-item account of pIC50
target: T1, His-tagged PCSK9Δhelix (human, UniProt Q8NBP7 31-152; Q8NBP7 168-692); assay: TR-FRET competition (PCSK9Δhelix/Ab20 assay); competitor Ab20
T1 construct: Human PCSK9 M1-Q692 with an engineered TEV site, cut by TEV protease; new N-terminus of the catalytic domain is S-A168; also called His-PCSK9Δhelix; not shown: His tag
T1 sequence (Q8NBP7 31-152, stated change not applied, chain 1 of 2): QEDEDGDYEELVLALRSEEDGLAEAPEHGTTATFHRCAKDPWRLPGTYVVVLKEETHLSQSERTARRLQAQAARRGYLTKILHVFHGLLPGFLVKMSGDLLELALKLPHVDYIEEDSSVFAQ
T1 sequence (Q8NBP7 other isoform, or with tags, fused parts or gaps mutant, chain 2 of 2): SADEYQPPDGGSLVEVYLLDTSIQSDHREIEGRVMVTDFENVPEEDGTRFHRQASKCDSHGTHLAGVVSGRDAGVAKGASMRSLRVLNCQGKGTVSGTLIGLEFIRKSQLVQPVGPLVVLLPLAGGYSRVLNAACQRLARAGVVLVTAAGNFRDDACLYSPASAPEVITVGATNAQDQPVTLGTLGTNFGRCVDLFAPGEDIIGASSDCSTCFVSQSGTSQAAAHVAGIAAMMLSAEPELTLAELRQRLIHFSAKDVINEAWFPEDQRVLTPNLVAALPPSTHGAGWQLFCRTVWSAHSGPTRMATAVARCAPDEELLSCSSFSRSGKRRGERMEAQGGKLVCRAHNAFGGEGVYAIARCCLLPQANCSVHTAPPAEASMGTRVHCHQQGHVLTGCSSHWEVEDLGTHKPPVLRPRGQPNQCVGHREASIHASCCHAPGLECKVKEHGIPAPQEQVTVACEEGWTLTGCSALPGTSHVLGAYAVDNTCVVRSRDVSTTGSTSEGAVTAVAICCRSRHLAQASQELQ
Bridge positions count the residues as written; N and C are the ends. Square brackets hold non-standard residues; d marks the D form. hArg = N=C(N)NCCCC[C@H](N)C(=O)O
Scale: pIC50 equals -log10([C]), with [C] in mol/L.

binder="Ac-CRLPWNLQ[hArg]IGLPC-NH2 (disulfide 1-14; SMILES CC[C@H](C)[C@@H]1NC(=O)[C@H](CCCCNC(=N)N)NC(=O)[C@H](CCC(N)=O)NC(=O)[C@H](CC(C)C)NC(=O)[C@H](CC(N)=O)NC(=O)[C@H](Cc2c[nH]c3ccccc23)NC(=O)[C@@H]2CCCN2C(=O)[C@H](CC(C)C)NC(=O)[C@H](CCCNC(=N)N)NC(=O)[C@@H](NC(C)=O)CSSC[C@@H](C(N)=O)NC(=O)[C@@H]2CCCN2C(=O)[C@H](CC(C)C)NC(=O)CNC1=O) [Compound 117 (Ac-CRLPWNLQ(homoR)IGLPC-NH2)]" measurement=6.48

Here is another binder to look at.
The binder listed as Ac-C[dR]LPWNLQRIGLPC-NH2 (disulfide 1-14; SMILES CC[C@H](C)[C@@H]1NC(=O)[C@H](CCCNC(=N)N)NC(=O)[C@H](CCC(N)=O)NC(=O)[C@H](CC(C)C)NC(=O)[C@H](CC(N)=O)NC(=O)[C@H](Cc2c[nH]c3ccccc23)NC(=O)[C@@H]2CCCN2C(=O)[C@H](CC(C)C)NC(=O)[C@@H](CCCNC(=N)N)NC(=O)[C@@H](NC(C)=O)CSSC[C@@H](C(N)=O)NC(=O)[C@@H]2CCCN2C(=O)[C@H](CC(C)C)NC(=O)CNC1=O) [Compound 109 (Ac-CrLPWNLQRIGLPC-NH2)] has a reported pIC50 of 5.78
